Listing of recorded CC50 at 24 h by entry.
- Method Summary: in vitro
- Condition Summary: human
Positions of bridges follow the written chain, without caps; N, C: chain ends. Non-standard residues stand in square brackets, D forms with d. Residues, ends and D or L forms follow the SMILES beside them. *: point of attachment. Decanoyl(3R-OH) = CCCCCCC[C@@H](O)CC(=O)*; X13 = CCCCCCCCCC(O)CC(=O)*; dDab = NCC[C@@H](N)C(=O)O; Dab = NCC[C@H](N)C(=O)O
Give the value in µM but do not write µM after it.

Solved entries (count: 3):
CCCCCCC[C@@H](O)CC(=O)N[C@H](CCN)C(=O)N[C@H]1CCNC(=O)[C@H](Cc2ccc(O)cc2)NC(=O)[C@H](CCN)NC(=O)[C@H](CCN)NC(=O)[C@H](CC(C)C)NC(=O)[C@@H](Cc2ccccc2)NC(=O)[C@H](CCN)NC1=O [compound 6511] ({Decanoyl(3R-OH)}-[dDab][Dab][Dab][dF]L[Dab][Dab]Y; lactam 2-C) :: 76
CCCCCCC[C@@H](O)CC(=O)N[C@H](CCN)C(=O)N[C@H]1CCNC(=O)[C@H](CCCNC(=N)N)NC(=O)[C@H](CCN)NC(=O)[C@H](CCN)NC(=O)[C@H](CC(C)C)NC(=O)[C@@H](Cc2ccccc2)NC(=O)[C@H](CCN)NC1=O [compound 6508] ({Decanoyl(3R-OH)}-[dDab][Dab][Dab][dF]L[Dab][Dab]R; lactam 2-C) :: 142
CCCCCCCCCC(O)CC(=O)N[C@H](CCN)C(=O)N[C@H]1CCNC(=O)[C@H](CC(C)C)NC(=O)[C@H](CCN)NC(=O)[C@H](CCN)NC(=O)[C@H](CC(C)C)NC(=O)[C@@H](Cc2ccccc2)NC(=O)[C@H](CCN)NC1=O (stereo partly drawn) [compound 5014] (X13-[dDab][Dab][Dab][dF]L[Dab][Dab]L; lactam 2-C) :: 19

Now examine the next entry.
What measured CC50 at 24 h goes with CCCCCCC[C@@H](O)CC(=O)N[C@H](CCN)C(=O)N[C@H]1CCNC(=O)[C@H](Cc2ccccc2)NC(=O)[C@H](CCN)NC(=O)[C@H](CCN)NC(=O)[C@H](Cc2ccccc2)NC(=O)[C@@H](Cc2ccccc2)NC(=O)[C@H](CCN)NC1=O [compound 5005] ({Decanoyl(3R-OH)}-[dDab][Dab][Dab][dF]F[Dab][Dab]F; lactam 2-C) ?
54

* * *

- Test system: K. pneumoniae GN_106, PmxR
- Condition Summary: GN 106, PmxR
Positions of bridges follow the written chain, without caps; N, C: chain ends. Non-standard residues stand in square brackets, D forms with d. Residues, ends and D or L forms follow the SMILES beside them. *: point of attachment. Decanoyl(3R-OH) = CCCCCCC[C@@H](O)CC(=O)*; dBip = N[C@H](Cc1ccc(-c2ccccc2)cc1)C(=O)O; Heptanoyl(6-Me) = CC(C)CCCCC(=O)*; Igl = N[C@H](C(=O)O)C1Cc2ccccc2C1; dDab = NCC[C@@H](N)C(=O)O; Octanoyl = CCCCCCCC(=O)*; dDap = NC[C@@H](N)C(=O)O; Dab = NCC[C@H](N)C(=O)O; Nva = CCC[C@H](N)C(=O)O
Listing of recorded MIC K. pneumoniae GN_106, PmxR by entry.
Give the value in µg/mL but do not write µg/mL after it.

CC(C)CCCCC(=O)N[C@H](CCN)C(=O)N[C@H]1CCNC(=O)[C@H](CC(C)C)NC(=O)[C@H](CCN)NC(=O)[C@H](CCN)NC(=O)[C@H](CC(C)C)NC(=O)[C@@H](Cc2ccccc2)NC(=O)[C@H](CCN)NC1=O [compound 9290] ({Heptanoyl(6-Me)}-[dDab][Dab][Dab][dF]L[Dab][Dab]L; lactam 2-C) :: 4
CCCCCCCC(=O)N[C@H](CCN)C(=O)N[C@H]1CCNC(=O)[C@H](Cc2c[nH]c3ccccc23)NC(=O)[C@H](CCN)NC(=O)[C@H](CCN)NC(=O)[C@H](C2Cc3ccccc3C2)NC(=O)[C@@H](Cc2ccccc2)NC(=O)[C@H](CCN)NC1=O [compound 8898] (Octanoyl-[dDab][Dab][Dab][dF][Igl][Dab][Dab]W; lactam 2-C) :: 8
CCCCCCC[C@@H](O)CC(=O)N[C@H](CN)C(=O)N[C@H]1CCNC(=O)[C@H](CC(C)C)NC(=O)[C@H](CCN)NC(=O)[C@H](CCN)NC(=O)[C@H](CCC)NC(=O)[C@@H](Cc2ccccc2)NC(=O)[C@H](CCN)NC1=O [compound 9293] ({Decanoyl(3R-OH)}-[dDap][Dab][Dab][dF][Nva][Dab][Dab]L; lactam 2-C) :: 2

Now examine the next entry.
What measured MIC K. pneumoniae GN_106, PmxR goes with CCCCCCC[C@@H](O)CC(=O)N[C@H](CCN)C(=O)N[C@H]1CCNC(=O)[C@H]([C@@H](C)O)NC(=O)[C@H](CCN)NC(=O)[C@H](CCN)NC(=O)[C@H](CC(C)C)NC(=O)[C@@H](Cc2ccc(-c3ccccc3)cc2)NC(=O)[C@H](CCN)NC1=O [compound 5608] ({Decanoyl(3R-OH)}-[dDab][Dab][Dab][dBip]L[Dab][Dab]T; lactam 2-C) ?
8

* * *

- Tested on: K. pneumoniae GN_106, PmxR
- Condition Summary: GN 106, PmxR
Positions of bridges follow the written chain, without caps; N, C: chain ends. Non-standard residues stand in square brackets, D forms with d. Residues, ends and D or L forms follow the SMILES beside them. *: point of attachment. Decanoyl(3R-OH) = CCCCCCC[C@@H](O)CC(=O)*; dDab = NCC[C@@H](N)C(=O)O; X2 = CCC(C)CCC(O)CC(=O)*; Dab = NCC[C@H](N)C(=O)O
Assay Endpoint: MIC K. pneumoniae GN_106, PmxR

Solved entries (count: 2):
CCC(C)CCC(O)CC(=O)N[C@H](CCN)C(=O)N[C@H]1CCNC(=O)[C@H](CC(C)C)NC(=O)[C@H](CCN)NC(=O)[C@H](CCN)NC(=O)[C@H](Cc2ccccc2)NC(=O)[C@H](CC(C)C)NC(=O)[C@H](CCN)NC1=O (stereo partly drawn) [compound 6371] (X2-[dDab][Dab][Dab]LF[Dab][Dab]L; lactam 2-C) :: >32 µg/mL
CCCCCCC[C@@H](O)CC(=O)N[C@H](CCN)C(=O)N[C@H]1CCNC(=O)[C@H](CC(C)C)NC(=O)[C@H](CCN)NC(=O)[C@H](CCN)NC(=O)[C@H](C)NC(=O)[C@@H](Cc2ccccc2)NC(=O)[C@H](CCN)NC1=O [compound 4946] ({Decanoyl(3R-OH)}-[dDab][Dab][Dab][dF]A[Dab][Dab]L; lactam 2-C) :: 16 µg/mL

Now examine the next entry.
What measured MIC K. pneumoniae GN_106, PmxR goes with CCCCCCC[C@@H](O)CC(=O)N[C@H](CCN)C(=O)N[C@H]1CCNC(=O)[C@H](Cc2c[nH]c3ccccc23)NC(=O)[C@H](CCN)NC(=O)[C@H](CCN)NC(=O)[C@H](CC(C)C)NC(=O)[C@@H](Cc2c[nH]c3ccccc23)NC(=O)[C@H](CCN)NC1=O [compound 8127] ({Decanoyl(3R-OH)}-[dDab][Dab][Dab][dW]L[Dab][Dab]W; lactam 2-C) ?
4 µg/mL

* * *

- System: E. coli ATCC 25922
- Condition Summary: ATCC 25922
Positions of bridges follow the written chain, without caps; N, C: chain ends. Non-standard residues stand in square brackets, D forms with d. Residues, ends and D or L forms follow the SMILES beside them. *: point of attachment. Decanoyl(3R-OH) = CCCCCCC[C@@H](O)CC(=O)*; dDab = NCC[C@@H](N)C(=O)O; Dab = NCC[C@H](N)C(=O)O
Listing of recorded MIC E. coli ATCC 25922 by entry.

CCCCCCC[C@@H](O)CC(=O)N[C@H](CCN)C(=O)N[C@H]1CCNC(=O)[C@H](CC(C)C)NC(=O)[C@H](CCN)NC(=O)[C@H](CCN)NC(=O)[C@H](Cc2ccccc2)NC(=O)[C@@H](Cc2ccccc2)NC(=O)[C@H](CCN)NC1=O [compound 5003] ({Decanoyl(3R-OH)}-[dDab][Dab][Dab][dF]F[Dab][Dab]L; lactam 2-C) :: 8 µg/mL

Now examine the next entry.
What measured MIC E. coli ATCC 25922 goes with CCCCCCC[C@@H](O)CC(=O)N[C@@H](CCN)C(=O)N[C@@H]1CCNC(=O)[C@H](CC(C)C)NC(=O)[C@H](CCN)NC(=O)[C@H](CCN)NC(=O)[C@H](CC(C)C)NC(=O)[C@@H](Cc2ccccc2)NC(=O)[C@H](CCN)NC1=O [compound 6658] ({Decanoyl(3R-OH)}-[Dab][dDab][Dab][dF]L[Dab][Dab]L; lactam 2-C) ?
>32 µg/mL

These measurements were taken from patent US11279733B2.
